details: buffer; pH 7.4; 200.0 µM
readout-name: solubility kinetic

molecule	result
CC1(C)NC(=O)N(Cc2cc(=O)n3ccsc3n2)C1=O	> 43.8 µg/mL
Cc1ccc(S(=O)(=O)NCCc2ccncc2)cc1C	> 43.6 µg/mL
COc1cccc2[nH]c(C(=O)NC(C)c3ccccc3)cc12 (stereo not drawn)	> 44.2 µg/mL
O=C(NCc1ccc2c(c1)OCO2)C1CCC(=O)N1C1CCCC1 (stereo not drawn)	> 49.6 µg/mL
O=C(NNC(=O)c1cc([N+](=O)[O-])ccc1Cl)c1cccnc1	> 48.1 µg/mL
CCCCNC(=O)C1CC(=O)N(CCc2ccc(C)cc2)C1 (stereo not drawn)	> 45.4 µg/mL
Cc1nc(-c2cccc(NC(=O)c3ccco3)c2)cs1	> 42.6 µg/mL
CC(=O)c1ccc(-n2ccc(=O)cc2)cc1	> 32 µg/mL
